Tested on: 598228-144-R-J1-PDC complex spheroids, viability;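 note: spheroids exposed to compounds for seven days before readout; 100% = DMSO vehicle control wells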
assay_remarks: Anticancer human tumor 598228-144-R-J1-PDC patient-derived serous endometrial adenocarcinoma cell line growth inhibition [CLK]
condition_description: second compound 0.1 µM; first compound 0.000949 µM; hits give low values
outcome_measure: viability, T/C (%)
Could you give me the number in %? Just the number is fine.

Q: // query viability, T/C value for entry CC(C)CC(NC(=O)C(Cc1ccccc1)NC(=O)c1cnccn1)B(O)O (centres undefined) + CN1CCN(c2cc(C(=O)Nc3cc4cc(-c5cnn(C)c5)ccc4cn3)ccn2)CC1
Result: 137

Q: Same question for CC(C)CC(NC(=O)C(Cc1ccccc1)NC(=O)c1cnccn1)B(O)O (centres undefined) + CNC(=O)c1ccc(Nc2nc(OC3CCCC3)c3c(-c4ccc5nc(C)oc5c4)c[nH]c3n2)c(OC)c1 please.
Result: 127

Q: Same question for C=CC(=O)Nc1cc(Nc2nccc(-c3cn(C)c4ccccc34)n2)c(OC)cc1N(C)CCN(C)C + CN1CCN(c2cc(C(=O)Nc3cc4cc(-c5cnn(C)c5)ccc4cn3)ccn2)CC1 please.
Result: 127

Q: Same question for C=CC(=O)Nc1cc(Nc2nccc(-c3cn(C)c4ccccc34)n2)c(OC)cc1N(C)CCN(C)C + CNC(=O)c1ccc(Nc2nc(OC3CCCC3)c3c(-c4ccc5nc(C)oc5c4)c[nH]c3n2)c(OC)c1 please.
Result: 120
